# system name: human placental microsomal DHEAS sulphatase (Homo sapiens, UniProt P08842)
# Construct: Human placental microsomes prepared as described in; from tissue; host or cells: human placenta, microsomes (prepared as Santner et al 1984)
# Sequence (P08842 22-583): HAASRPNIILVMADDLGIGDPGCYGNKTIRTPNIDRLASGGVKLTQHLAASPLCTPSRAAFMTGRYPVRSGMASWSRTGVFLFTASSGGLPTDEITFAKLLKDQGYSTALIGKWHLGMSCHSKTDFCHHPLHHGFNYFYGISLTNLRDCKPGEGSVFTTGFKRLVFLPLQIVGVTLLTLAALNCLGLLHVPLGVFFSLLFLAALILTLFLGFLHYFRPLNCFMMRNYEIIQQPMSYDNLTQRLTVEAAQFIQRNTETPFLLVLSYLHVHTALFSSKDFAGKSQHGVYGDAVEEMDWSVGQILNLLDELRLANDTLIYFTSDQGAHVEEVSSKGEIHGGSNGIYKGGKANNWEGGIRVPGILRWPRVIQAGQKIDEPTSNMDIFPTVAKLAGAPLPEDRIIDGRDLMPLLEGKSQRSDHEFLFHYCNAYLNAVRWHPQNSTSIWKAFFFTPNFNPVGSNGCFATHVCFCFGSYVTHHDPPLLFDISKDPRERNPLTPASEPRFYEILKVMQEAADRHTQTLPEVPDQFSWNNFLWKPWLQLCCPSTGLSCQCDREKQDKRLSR
# procedure text: Human placental microsomal steroid sulphatase assay
# Format: biochemical
reported metric: IC50 (nM)
Give just the numeric value; nM need not be written.

Value lookup for IC50; key = C[C@]12CC[C@@H]3c4ccc(OS(N)(=O)=O)cc4CC[C@H]3[C@@H]1CCC2=O [CT 2251, Estrone 3-0-sulphamate] 5
